Test: Stability in SPF at pH 7.4 assessed as compound remaining measured after 120 mins by UPLC analysis
Assay type: physicochemical
Conditions: read-out: Stability
Measured Metric: remaining at 2 h

For record O=C(NCc1cn(-c2ccccc2)nn1)c1cc(Cc2n[nH]c(=O)c3ccccc23)ccc1F the listed remaining at 2 h is ≤ 60%

---

Biological target: Solute carrier family 2, facilitated glucose transporter member 4 (Rattus norvegicus)
Sequence (whole entry): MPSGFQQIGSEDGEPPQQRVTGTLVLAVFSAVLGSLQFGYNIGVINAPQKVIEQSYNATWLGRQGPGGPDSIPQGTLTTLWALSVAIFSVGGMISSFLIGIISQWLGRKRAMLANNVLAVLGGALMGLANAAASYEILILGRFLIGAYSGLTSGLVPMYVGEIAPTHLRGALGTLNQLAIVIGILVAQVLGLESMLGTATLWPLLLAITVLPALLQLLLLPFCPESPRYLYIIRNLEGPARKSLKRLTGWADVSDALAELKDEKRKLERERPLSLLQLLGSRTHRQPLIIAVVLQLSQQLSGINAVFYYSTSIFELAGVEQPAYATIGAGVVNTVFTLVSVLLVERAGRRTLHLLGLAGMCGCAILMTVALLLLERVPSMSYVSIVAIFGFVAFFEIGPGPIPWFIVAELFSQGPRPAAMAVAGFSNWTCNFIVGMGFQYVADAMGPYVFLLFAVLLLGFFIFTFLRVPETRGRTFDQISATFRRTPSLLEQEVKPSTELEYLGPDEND
Assay: Modulation of GLUT4 translocation in rat L6-GLUT4myc skeletal muscle cells assessed as increase in surface GLUT4myc level by measuring fold stimulation at 10 uM measured after 16 hrs by O-phenylenediamine assay relative to control
Assay type: cell-based
Details: filed as modulator
Measured Metric: fold change (FC)
Reply: number alone, nothing else.

1) COc1cccc(-n2cc(CNC(=O)c3cc(Cc4n[nH]c(=O)c5ccccc45)ccc3F)nn2)c1 1.4
2) O=C(OCc1cn(-c2ccccc2)nn1)c1ccc(Cc2n[nH]c(=O)c3ccccc23)cc1 0.94
3) O=C(NCc1cn(-c2ccccc2)nn1)c1ccc(Cc2n[nH]c(=O)c3ccccc23)cc1F 1.36

For record O=C(NCc1cn(-c2ccc(F)cc2)nn1)c1cc(Cc2n[nH]c(=O)c3ccccc23)ccc1F the listed fold change (FC) is 1.98

For record O=C(NCc1cn(-c2ccc(OC(F)(F)F)cc2)nn1)c1ccc(Cc2n[nH]c(=O)c3ccccc23)cc1 the listed fold change (FC) is 1.04

For record O=C(NCc1cn(-c2ccc(C(F)(F)F)cc2)nn1)c1cc(Cc2n[nH]c(=O)c3ccccc23)ccc1F the listed fold change (FC) is 1.77

For record O=C(NCc1cn(-c2ccc(OC(F)(F)F)cc2)nn1)c1cc(Cc2n[nH]c(=O)c3ccccc23)ccc1F the listed fold change (FC) is 1.59

---

Listed here: items and their measured fold change (FC).
Target: Solute carrier family 2, facilitated glucose transporter member 4 (Rattus norvegicus)
Sequence (whole entry): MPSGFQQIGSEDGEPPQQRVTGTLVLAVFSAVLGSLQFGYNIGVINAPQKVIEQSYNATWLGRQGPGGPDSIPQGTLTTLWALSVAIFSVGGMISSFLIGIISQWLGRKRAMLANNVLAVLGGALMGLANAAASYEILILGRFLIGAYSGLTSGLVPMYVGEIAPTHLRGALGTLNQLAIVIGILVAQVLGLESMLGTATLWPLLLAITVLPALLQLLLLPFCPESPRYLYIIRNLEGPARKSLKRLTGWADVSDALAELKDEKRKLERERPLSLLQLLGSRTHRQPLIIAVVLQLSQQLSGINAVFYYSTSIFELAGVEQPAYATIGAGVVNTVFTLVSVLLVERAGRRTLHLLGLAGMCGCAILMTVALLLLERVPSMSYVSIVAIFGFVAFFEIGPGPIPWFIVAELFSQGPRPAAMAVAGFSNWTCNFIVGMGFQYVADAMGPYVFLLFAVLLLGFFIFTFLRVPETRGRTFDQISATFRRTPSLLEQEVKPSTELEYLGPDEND
Assay: Modulation of GLUT4 translocation in rat L6-GLUT4myc skeletal muscle cells assessed as increase in surface GLUT4myc level by measuring fold stimulation at 10 uM measured after 16 hrs by O-phenylenediamine assay relative to control
Assay type: cell-based
Details: filed as modulator
Reply: number alone, nothing else.

1) O=C(NCc1cn(-c2ccc(F)cc2)nn1)c1ccc(Cc2n[nH]c(=O)c3ccccc23)cc1 1.11
2) CC(C)c1ccc(-n2cc(CNC(=O)c3cc(Cc4n[nH]c(=O)c5ccccc45)ccc3F)nn2)cc1 1.1

Kindly consider the entry below.
For record COc1ccccc1-n1cc(CNC(=O)c2cc(Cc3n[nH]c(=O)c4ccccc34)ccc2F)nn1 the listed fold change (FC) is 1.01
